target: human MDR1 (P-gp) (Homo sapiens, UniProt P08183); construct: expressed in transfected cells; host or cells: MDCKII (Madin-Darby canine kidney) cells; test: MDCK assay MDR-1 (p-GP): permeability across MDCK-MDR1 monolayers; type: in vitro ADME; settings: pH 7.4, MDCK-MDR1, Papp (b-a) divided by Papp (a-b)
Sequence (P08183 whole entry): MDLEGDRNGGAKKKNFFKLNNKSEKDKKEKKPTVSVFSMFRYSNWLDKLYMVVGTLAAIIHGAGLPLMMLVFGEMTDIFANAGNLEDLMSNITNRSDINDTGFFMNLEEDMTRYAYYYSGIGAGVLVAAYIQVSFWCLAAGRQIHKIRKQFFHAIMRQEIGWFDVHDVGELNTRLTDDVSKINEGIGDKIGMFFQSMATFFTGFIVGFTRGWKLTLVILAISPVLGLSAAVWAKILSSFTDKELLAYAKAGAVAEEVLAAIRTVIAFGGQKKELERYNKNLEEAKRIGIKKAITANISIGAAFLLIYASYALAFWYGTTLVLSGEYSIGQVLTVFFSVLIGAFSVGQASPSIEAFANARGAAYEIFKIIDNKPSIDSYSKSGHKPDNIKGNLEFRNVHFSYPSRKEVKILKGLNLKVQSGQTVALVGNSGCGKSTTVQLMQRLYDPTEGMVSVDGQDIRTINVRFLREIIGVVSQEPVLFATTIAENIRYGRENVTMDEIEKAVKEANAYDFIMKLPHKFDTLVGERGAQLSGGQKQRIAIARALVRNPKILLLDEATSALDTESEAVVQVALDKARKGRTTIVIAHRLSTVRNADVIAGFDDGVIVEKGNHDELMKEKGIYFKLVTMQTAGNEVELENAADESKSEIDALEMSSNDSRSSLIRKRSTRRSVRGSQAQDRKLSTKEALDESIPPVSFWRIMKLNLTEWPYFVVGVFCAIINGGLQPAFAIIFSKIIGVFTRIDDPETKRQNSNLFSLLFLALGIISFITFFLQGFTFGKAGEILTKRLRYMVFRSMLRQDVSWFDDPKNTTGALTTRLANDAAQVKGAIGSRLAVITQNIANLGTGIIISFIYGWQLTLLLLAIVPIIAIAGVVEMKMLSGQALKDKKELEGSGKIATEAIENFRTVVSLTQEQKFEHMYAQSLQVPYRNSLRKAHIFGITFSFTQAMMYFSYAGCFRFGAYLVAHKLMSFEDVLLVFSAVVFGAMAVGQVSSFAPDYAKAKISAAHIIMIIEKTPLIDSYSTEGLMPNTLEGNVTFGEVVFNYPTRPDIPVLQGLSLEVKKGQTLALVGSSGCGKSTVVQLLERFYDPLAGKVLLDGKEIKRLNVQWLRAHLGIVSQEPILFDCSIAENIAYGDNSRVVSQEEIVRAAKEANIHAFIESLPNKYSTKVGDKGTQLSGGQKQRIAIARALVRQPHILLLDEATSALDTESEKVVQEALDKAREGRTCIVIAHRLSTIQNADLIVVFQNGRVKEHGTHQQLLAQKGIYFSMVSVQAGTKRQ
property: efflux ratio

P. O=C(OCc1ccc(F)cc1)N1CCO[C@H](c2nc3cccnc3[nH]2)C1 [Example 2]
Q. Cc1cccc(COC(=O)N2CCO[C@H](c3nc4cccnc4[nH]3)C2)c1 [Example 9]
QUERY: // which entry has the larger efflux ratio value, P or Q ? // respond with label for picked entry
RESULT: P
(P: 1.7, Q: 1.16)

###

Target: human BCRP (Homo sapiens)
Construct: expressed in transfected cells; host or cells: MDCKII (Madin-Darby canine kidney) cells
Sequence (Q9UNQ0 1-655): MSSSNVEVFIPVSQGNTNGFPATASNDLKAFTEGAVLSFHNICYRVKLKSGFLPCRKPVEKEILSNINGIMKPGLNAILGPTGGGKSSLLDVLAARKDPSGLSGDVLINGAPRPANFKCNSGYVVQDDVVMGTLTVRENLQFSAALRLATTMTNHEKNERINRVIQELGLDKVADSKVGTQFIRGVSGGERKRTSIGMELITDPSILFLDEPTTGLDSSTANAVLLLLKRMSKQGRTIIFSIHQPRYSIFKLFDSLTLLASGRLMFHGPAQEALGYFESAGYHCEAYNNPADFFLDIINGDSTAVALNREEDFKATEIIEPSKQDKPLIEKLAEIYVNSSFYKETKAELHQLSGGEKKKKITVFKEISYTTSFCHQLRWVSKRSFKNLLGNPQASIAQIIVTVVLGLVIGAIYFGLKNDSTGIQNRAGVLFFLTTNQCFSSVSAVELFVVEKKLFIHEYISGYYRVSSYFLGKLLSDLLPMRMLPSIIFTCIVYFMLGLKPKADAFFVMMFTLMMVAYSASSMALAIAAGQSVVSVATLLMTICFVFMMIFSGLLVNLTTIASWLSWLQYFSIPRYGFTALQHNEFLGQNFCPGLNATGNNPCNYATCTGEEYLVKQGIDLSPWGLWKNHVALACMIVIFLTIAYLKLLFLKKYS
Experiment: MDCK assay BCRP: permeability across MDCK-BCRP monolayers
Assay type: in vitro ADME
Conditions: MDCK-BCRP monolayers, apical-to-basal, pH 7.4, 1 or 10 μM
Description: The MDCK assays provide information on the potential of a compound to pass the blood brain barrier. Permeability measurements across polarized, confluent MDCK-MDR1 cell monolayers grown on permeable filter supports are used as an in vitro absorption model: apparent permeability coefficients (PE) of the compounds across the MDCK-MDR1 cell monolayers are measured (pH 7.4, 37° C.) in apical-to-basal (AB) and basal-to-apical (BA) transport direction. […]
property: Papp A→B (×10⁻⁶ cm/s)

O=C(OCc1ccccc1Cl)N1CCO[C@H](c2nc3cccnc3[nH]2)C1: 68
O=C(OCc1c(F)cccc1F)N1CCO[C@H](c2nc3cccnc3[nH]2)C1: 49
O=C(OCc1cccc(F)c1)N1CCO[C@H](c2nc3cccnc3[nH]2)C1: 38
Cc1ccc(COC(=O)N2CCO[C@H](c3nc4cccnc4[nH]3)C2)cc1: 53

###

assay: Metabolic stability in pooled human liver microsomes; format: in vitro ADME; details: pH 7.6; pooled human liver microsomes 1 mg/mL, 1 μM compound, 37° C., NADPH; read-out: Half-life - t½ human liver microsomes
property: half-life at 1 µM (min)

Here's what some known entries look like.
Cc1ccc(COC(=O)N2CCO[C@H](c3nc4cc(F)cnc4[nH]3)C2)cc1 [Example 31]: 16
Cc1ccc(COC(=O)N2CCO[C@H](c3nc4cccnc4[nH]3)C2)c(F)c1 [Example 11]: 24

A. O=C(OCc1ccccc1F)N1CCO[C@H](c2nc3cccnc3[nH]2)C1 [Example 27]
B. Cc1ccc(COC(=O)N2CCO[C@H](c3nc4cccnc4[nH]3)C2)cc1 [Example 18]
QUERY: // compare: A vs B , metric half-life at 1 µM, want the smaller // respond with label for picked entry
RESULT: B
(B: 51 min, A: 130 min)

1. Cc1cccc(F)c1COC(=O)N1CCO[C@H](c2nc3cccnc3[nH]2)C1 [Example 10]
2. Cc1ccnc2[nH]c([C@@H]3CN(C(=O)OCc4ccc(F)cc4)CCO3)nc12 [Example 6]
3. Cc1cccc(COC(=O)N2CCO[C@H](c3nc4cccnc4[nH]3)C2)c1 [Example 9]
QUERY: Order these by half-life at 1 µM, descending, and give the full ranking. When ranking, write the labels in the order the request describes.
RESULT: 2, 3, 1
